biological target: recombinant sEH (Homo sapiens); assay: biochemical screening assay for inhibition of soluble epoxide hydrolase (fluorometric, Phome substrate)
Provide the recorded IC50 for the entries that follow.
Form entry: value (nM) — number only.

## Input Give the measured IC50 of C[C@H](NC(=O)N[C@H]1CO[C@H]2[C@@H]1OC[C@@H]2Oc1ccc(F)cc1)C1CCCCC1 .
## Output 24

## Input Give the measured IC50 of O=C(NC1CCCCC1)N[C@H]1CO[C@H]2[C@@H]1OC[C@@H]2Oc1ccc(Br)cc1 .
## Output 3

## Input Give the measured IC50 of O=C(Nc1ccccc1)N[C@H]1CO[C@@H]2[C@@H]1OC[C@H]2C#Cc1ccccc1 .
## Output 227

## Input Give the measured IC50 of COc1cc(NC(=O)NC2COC3C(CCc4ccsc4)COC23)cc(OC)c1 (stereo not shown) .
## Output 39

----------
biological target: recombinant sEH (Homo sapiens); assay: biochemical screening assay for inhibition of soluble epoxide hydrolase (fluorometric, Phome substrate)
Counter-ions that a name gives are not always drawn.
Endpoint label: IC50 (nM)
Form entry: value (nM) — number only.

## Input Query IC50 on recombinant sEH (Homo sapiens) for O=C(NC1CCCCC1)N[C@H]1CO[C@H]2[C@@H]1OC[C@@H]2Oc1ccccc1CN1CCOCC1 [Example 123, trifluoroacetate]
## Output 4

## Input Query IC50 on recombinant sEH (Homo sapiens) for O=C(NCCc1ccccc1)N[C@H]1CO[C@H]2[C@@H]1OC[C@@H]2C#Cc1ccccc1
## Output 67

## Input Query IC50 on recombinant sEH (Homo sapiens) for Cc1ncccc1O[C@H]1CO[C@H]2[C@@H]1OC[C@@H]2NC(=O)N[C@H]1C[C@H]2C[C@@H]([C@@H]1C)C2(C)C
## Output 2

----------
Provide the recorded pIC50 for the entries that follow.
target: recombinant sEH (Homo sapiens, UniProt P34913); test: biochemical screening assay for inhibition of soluble epoxide hydrolase (fluorometric, Phome substrate)
Sequence (P34913 whole entry): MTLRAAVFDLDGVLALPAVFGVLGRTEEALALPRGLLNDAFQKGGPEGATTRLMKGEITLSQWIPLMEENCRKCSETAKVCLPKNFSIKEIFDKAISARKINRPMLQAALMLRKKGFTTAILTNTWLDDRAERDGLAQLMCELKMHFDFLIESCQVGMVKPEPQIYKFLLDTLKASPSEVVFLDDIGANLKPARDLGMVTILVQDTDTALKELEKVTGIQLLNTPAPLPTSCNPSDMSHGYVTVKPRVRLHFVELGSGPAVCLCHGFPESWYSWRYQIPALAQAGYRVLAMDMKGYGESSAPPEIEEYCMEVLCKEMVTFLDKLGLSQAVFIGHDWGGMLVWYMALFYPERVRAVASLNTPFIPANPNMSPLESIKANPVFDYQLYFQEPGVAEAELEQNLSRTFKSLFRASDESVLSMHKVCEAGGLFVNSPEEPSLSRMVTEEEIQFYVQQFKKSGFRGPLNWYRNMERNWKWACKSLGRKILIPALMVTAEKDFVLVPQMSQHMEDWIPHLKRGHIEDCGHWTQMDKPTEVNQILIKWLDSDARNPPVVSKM
Counter-ions that a name gives are not always drawn.
Keep it numeric: pIC50 is minus log10 of the concentration in mol/L.

## Input Query pIC50 on recombinant sEH (Homo sapiens, UniProt P34913) for O=C(NC1CCCCC1)N[C@H]1CO[C@H]2[C@@H]1OC[C@@H]2Sc1ccccn1
## Output 9.00

## Input Query pIC50 on recombinant sEH (Homo sapiens, UniProt P34913) for CC(C)(O)c1cncc(O[C@H]2CO[C@H]3[C@@H]2OC[C@@H]3NC(=O)NC2CCCCC2)c1 [Example 68, hydrochloride]
## Output 8.70

## Input Query pIC50 on recombinant sEH (Homo sapiens, UniProt P34913) for O=C(NC1CCc2ccccc21)NC1COC2C(Oc3ccc(F)cc3)COC12 (centres unmarked)
## Output 7.80

## Input Query pIC50 on recombinant sEH (Homo sapiens, UniProt P34913) for Cc1cccc(CNC(=O)N[C@H]2CO[C@H]3[C@@H]2OC[C@@H]3/C=C\c2ccsc2)c1
## Output 6.38

## Input Query pIC50 on recombinant sEH (Homo sapiens, UniProt P34913) for O=C(NC1CCCCC1)N[C@H]1CO[C@H]2[C@@H]1OC[C@@H]2Oc1cc(Cl)cc(Cl)c1
## Output 8.52

## Input Query pIC50 on recombinant sEH (Homo sapiens, UniProt P34913) for Cc1ncccc1O[C@H]1CO[C@H]2[C@@H]1OC[C@@H]2NC(=O)NC1(C#N)CCCCC1
## Output 6.30

## Input Query pIC50 on recombinant sEH (Homo sapiens, UniProt P34913) for Cc1ncccc1O[C@H]1CO[C@H]2[C@@H]1OC[C@@H]2NC(=O)NC1(c2cccc(F)c2)CCCC1
## Output 5.94

## Input Query pIC50 on recombinant sEH (Homo sapiens, UniProt P34913) for Cc1ncccc1OC1COC2C(NC(=O)NC34CC5(C)CC(C)(CC(O)(C5)C3)C4)COC12 (centres unmarked)
## Output 7.72

## Input Query pIC50 on recombinant sEH (Homo sapiens, UniProt P34913) for O=C(NC1CCCCC1)N[C@H]1CO[C@H]2[C@@H]1OC[C@@H]2Oc1ccccc1C(=O)N1CCOCC1
## Output 7.70

## Input Query pIC50 on recombinant sEH (Homo sapiens, UniProt P34913) for Cc1ncc(O[C@H]2CO[C@H]3[C@@H]2OC[C@@H]3NC(=O)NC2CCCCC2)cn1
## Output 7.60

## Input Query pIC50 on recombinant sEH (Homo sapiens, UniProt P34913) for Cc1ncccc1O[C@H]1CO[C@H]2[C@@H]1OC[C@@H]2NC(=O)NC(C)(C)C1CCCCC1
## Output 6.93

## Input Query pIC50 on recombinant sEH (Homo sapiens, UniProt P34913) for Cc1ncccc1O[C@H]1CO[C@H]2[C@@H]1OC[C@@H]2NC(=O)NCC1(O)CCCCC1
## Output 7.02

## Input Query pIC50 on recombinant sEH (Homo sapiens, UniProt P34913) for Cc1ncccc1O[C@H]1CO[C@H]2[C@@H]1OC[C@@H]2NC(=O)NCC1COc2ccccc2O1 (some centres unmarked)
## Output 7.59

## Input Query pIC50 on recombinant sEH (Homo sapiens, UniProt P34913) for Cc1ncccc1O[C@H]1CO[C@H]2[C@@H]1OC[C@@H]2NC(=O)NC1(C)CCCCC1
## Output 7.14
